procedure.details: Clearance in human liver microsomes by LC/MS analysis
Format: ADME, Microsome
cond: read-out: CLH

{"columns": ["smiles.text", "microsomal CLint [µL/min/mg]"],
 "data": [
  ["O=C(c1ccco1)N1CCN([C@@H]2CC(=O)N(c3ccc(-c4ccc(F)cc4)cc3)C2)CC1", 21]
]}

* * *

procedure.details: Stability in human serum at 37 degC for 2 hrs by UPLC analysis
Assay type: ADME, cell-free
cond: read-out: Stability

{"columns": ["smiles.text", "remaining at 2 h"],
 "data": [
  ["O=C(c1ccco1)N1CCN([C@@H]2CC(=O)N(c3ccc(-c4ccc(F)cc4)cc3)C2)CC1", "> 95%"]
]}

* * *

procedure.details: Drug metabolism in C57BL/6 mouse brain assessed as intact parent compound at 46.50 to 49.39 MBq, iv and measured after 40 mins post injection by radio-UPLC analysis
Assay type: ADME, organism-based
cond: dose 46.5-49.39 MBq, read-out: Stability

{"columns": ["smiles.text", "remaining at 40 min"],
 "data": [
  ["O=C(c1ccco1)N1CCN([C@@H]2CC(=O)N(c3ccc(-c4ccc(F)cc4)cc3)C2)CC1", "70%"]
]}

* * *

procedure.details: Metabolic stability in C57BL/6 mouse brain assessed as remaining parent compound 46.50 to 49.39 MBq, iv and measured after 90 mins post injection by radio-UPLC analysis
Assay type: ADME, organism-based
cond: dose 46.5-49.39 MBq, read-out: Stability
observation.type: remaining at 1.5 h (%)

{"columns": ["smiles.text", "observation.type", "readout.units", "measured"],
 "data": [
  ["Cc1ccnc(F)c1-c1cccc(N2C[C@H](N3CCN(C(=O)c4nccs4)CC3)CC2=O)c1", "remaining at 1.5 h", "%", 73]
]}

* * *

procedure.details: Distribution coefficient between 1-octanol and phosphate buffer, logD of the compound after 15 mins by shake flask assay
Type: physicochemical
cond: 1-octanol/phosphate buffer
Measured logD at 0.25 h by item
observation.type: logD at 0.25 h

{"columns": ["molecule", "measured"],
 "data": [
  ["COc1cccc(-c2cccc(N3CC(N4CCN(C(=O)c5ccco5)CC4)CC3=O)c2)c1 (stereo not drawn)", 2.31],
  ["O=C(c1ccco1)N1CCN([C@@H]2CC(=O)N(c3ccc(-c4ccc(F)cc4)cc3)C2)CC1", 2.37],
  ["COc1cccc(-c2ccc(N3CC(N4CCN(C(=O)c5ccco5)CC4)CC3=O)cc2)c1 (stereo not drawn)", 2.24]
]}

* * *

system.under.test: Monoglyceride lipase (Mus musculus, UniProt O35678)
Sequence (O35678 whole entry): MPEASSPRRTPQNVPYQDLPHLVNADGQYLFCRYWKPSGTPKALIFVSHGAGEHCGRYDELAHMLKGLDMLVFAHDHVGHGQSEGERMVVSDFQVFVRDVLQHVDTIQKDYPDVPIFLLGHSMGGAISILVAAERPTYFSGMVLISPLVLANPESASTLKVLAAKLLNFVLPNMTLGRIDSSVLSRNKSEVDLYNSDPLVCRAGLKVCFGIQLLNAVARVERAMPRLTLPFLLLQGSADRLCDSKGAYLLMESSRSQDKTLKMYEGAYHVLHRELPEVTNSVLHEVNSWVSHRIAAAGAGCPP
Response field label: string, one of true (1) (IC50 strictly below 100 nM) or false (0).

{"columns": ["compound", "label"],
 "data": [
  ["O=C1CC(N2CCN(c3ncccn3)CC2)CN1c1cccc(N2CC[C@H](F)C2)c1 (stereo not given in full)", "false (0)"],
  ["Cc1ccnc(F)c1-c1cccc(N2C[C@H](N3CCN(C(=O)c4nccs4)CC3)CC2=O)c1", "true (1)"],
  ["O=C(c1ccco1)N1CCN(C2CC(=O)N(c3ccc(N4CC[C@@H](F)C4)cc3)C2)CC1 (stereo not given in full)", "false (0)"],
  ["O=C(c1ccco1)N1CCN([C@H]2CC(=O)N(c3ccc(-c4ccc(F)cc4)cc3)C2)CC1", "false (0)"],
  ["O=C1CC(N2CCN(c3ncccn3)CC2)CN1c1ccc(N2CC[C@H](F)C2)cc1 (stereo not given in full)", "true (1)"]
]}
